Test system: 324938-238-R-J1-PDC complex spheroid growth, % test/control;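 also: spheroids exposed to agents for seven days before viability read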
PROCEDURE_DETAILS: Anticancer human tumor 324938-238-R-J1-PDC patient-derived bladder carcinoma cell line growth inhibition [AhR]
CONDITION_DETAILS: curve of first compound; second compound 1 µM
pIC50: −log10 of the molar value.
ASSAY_METRIC: pIC50

Record excerpt, results attached:
COMPOUND	RESULT
Nc1ncn(C2CC(O)C(CO)O2)c(=O)n1 (stereo not given) + CC(CO)NC(=O)c1cc(-c2ccc(Cl)cc2)nn(-c2cnn(C)c2)c1=O	< 6.00
O=C(c1cc(Cc2n[nH]c(=O)c3ccccc23)ccc1F)N1CCN(C(=O)C2CC2)CC1 + Cc1cncc(-c2nc(NCCc3c[nH]c4ccccc34)c3ncn(C(C)C)c3n2)c1	< 5.00
Nc1ncn(C2CC(O)C(CO)S2)c(=O)n1 (stereo not given) + Cc1cncc(-c2nc(NCCc3c[nH]c4ccccc34)c3ncn(C(C)C)c3n2)c1	< 6.52
CC(C)c1c(-c2ccccc2)nc2c(C#N)c[nH]n2c1=O + CC(CO)NC(=O)c1cc(-c2ccc(Cl)cc2)nn(-c2cnn(C)c2)c1=O	< 5.00
CC1COCCN1c1cc(C2(S(C)(=N)=O)CC2)nc(-c2ccnc3[nH]ccc23)n1 (stereo not given) + CC(CO)NC(=O)c1cc(-c2ccc(Cl)cc2)nn(-c2cnn(C)c2)c1=O	5.68
COc1cccc2c1C(=O)c1c(O)c3c(c(O)c1C2=O)CC(O)(C(=O)CO)CC3OC1CC(N)C(O)C(C)O1 (stereo not given) + Cc1ccccc1N=Nc1ccc(NC(=O)c2ccnn2C)c(C)c1	> 7.50

Please state, for each entry, its recorded pIC50.
1. COc1ccc([C@@H](O)c2cc(-c3ncnc4cc(N5CCOCC5)ccc34)c(F)cc2Cl)nn1 + CC(CO)NC(=O)c1cc(-c2ccc(Cl)cc2)nn(-c2cnn(C)c2)c1=O
2. COc1cc(C2c3cc4c(cc3C(OC3OC5COC(C)OC5C(O)C3O)C3COC(=O)C23)OCO4)cc(OC)c1O (stereo not given) + Cc1cncc(-c2nc(NCCc3c[nH]c4ccccc34)c3ncn(C(C)C)c3n2)c1
3. CCc1c2c(nc3ccc(O)cc13)-c1cc3c(c(=O)n1C2)COC(=O)[C@]3(O)CC + CC(CO)NC(=O)c1cc(-c2ccc(Cl)cc2)nn(-c2cnn(C)c2)c1=O
4. COc1cc(Nc2ncc3c(n2)-c2ccc(Cl)cc2C(c2c(F)cccc2OC)=NC3)ccc1C(=O)O + Cc1cncc(-c2nc(NCCc3c[nH]c4ccccc34)c3ncn(C(C)C)c3n2)c1

[reply]
["< 5.00", "< 5.00", "> 9.02", "< 5.00"]
